System: P388 leukemia ip, CD2F1 mice, survival T/C
Assay: NCI In Vivo Anticancer Drug Screen. Data for tumor model P388 Leukemia (intraperitoneal) in CD2F1 (CDF1) mice
Settings: endpoint: median survival time; dose: 120.0 mg/kg/injection; schedule: Q01DX005 (ip); vehicle: saline with Tween-80; higher = longer survival
Inconclusive results and toxic doses are left out.
T/C reference
Experimental Endpoint: T/C

>>> test_result("CNC(=O)Nc1cccc(C2(C)OCCS2)c1 (stereo unspecified)")
"94 % of control"
>>> test_result("COc1ccc(C2C3CCCC(C(c4ccc(OC)cc4)N2C)C32NC(=O)NC2=O)cc1 (stereo unspecified)")
"90 % of control"
>>> test_result("C=C(C)C(=O)OCCn1c(=O)c2c(ncn2C)n(C)c1=O")
"101 % of control"
>>> test_result("O=C(Cc1nc2ccccc2s1)Nc1ccc2ccccc2c1")
"106 % of control"
>>> test_result("O=C1NNC(=O)c2ccccc2C(=O)S1")
"101 % of control"
>>> test_result("O=S(=O)(c1ccc2ccccc2c1)N(CCCCCN(S(=O)(=O)c1ccc2ccccc2c1)S(=O)(=O)c1ccc2ccccc2c1)S(=O)(=O)c1ccc2ccccc2c1")
"94 % of control"
>>> test_result("Cc1cc(=O)n2[nH]c(-c3ccc(C(C)(C)C)cc3)cc2n1")
"109 % of control"
>>> test_result("C1CCCNCCNCCNCC1")
"100 % of control"
>>> test_result("COc1nc(NC2OCC(OC(C)=O)C(OC(C)=O)C2OC(C)=O)c(N=CC=Nc2c(NC3OCC(OC(C)=O)C(OC(C)=O)C3OC(C)=O)nc(OC)n(C)c2=O)c(=O)n1C (stereo unspecified)")
"91 % of control"
>>> test_result("COc1cc2c(cc1OC)[Se](Br)(Br)c1cc(OC)c(OC)cc1[Se]2")
"98 % of control"
>>> test_result("COc1ccc(C(c2cc3c(cc2O)OCO3)N2CCCCC2)cc1OC (stereo unspecified)")
"110 % of control"
>>> test_result("O=C(Nc1cccc(C(F)(F)F)c1)Oc1ccc(Cl)c2cccnc12")
"98 % of control"
>>> test_result("CCOC(=O)COc1ccc2c(C)cc(=O)oc2c1[N+](=O)[O-]")
"99 % of control"
>>> test_result("COC(=O)C1(CC(=O)c2cccc3ccccc23)NC(=S)NC(=O)C1C#N (stereo unspecified)")
"101 % of control"
>>> test_result("c1ccc(OCc2nn3c(-c4ccccc4)nnc3s2)cc1")
"94 % of control"
>>> test_result("NC(=O)c1ccccc1OC(=O)Nc1ccc(F)cc1")
"99 % of control"
>>> test_result("CCOC(=O)C1=C(Nc2cccc3c(NC4=C(C(=O)OCC)C(=O)CO4)cccc23)OCC1=O")
"99 % of control"
>>> test_result("CCOC(=O)c1c(C)n(C)c2c1nnc1ccccc12")
"90 % of control"
>>> test_result("CC1OC(C)(c2ccc(Cl)c(O)c2)OC1C (stereo unspecified)")
"102 % of control"
>>> test_result("CCN(CC)c1ccc(C(C#N)(c2ccc(N(CC)Cc3cccc(S(=O)(=O)O)c3)cc2)c2ccc(N(CC)Cc3cccc(S(=O)(=O)O)c3)cc2)cc1")
"92 % of control"
>>> test_result("COC(=O)c1nc(N)nc(C(=O)OC)c1C(=O)/C=C/c1ccccc1")
"98 % of control"

Data provenance: PubChem BioAssay AID330
